Data credit: patent US8536202B2

Recorded measurements of chromatographic logP, one per entry
protocol-description: log P determination by HPLC on reversed-phase columns (EEC Directive 79/831 Annex V.A8)
Type: physicochemical
experimental-parameters: pH 2.7
observed-property: chromatographic logP

[[record]]
molecule = "Cc1cc(C#N)cc(C(=O)NC(C)(C)C)c1NC(=O)c1cc(Cn2ncc(-c3cccc(Cl)c3)n2)nn1-c1ncccc1Cl [Example 65]"
observed_property = "chromatographic logP"
result_value = 4.14

[[record]]
molecule = "Cc1cc(Cl)cc(C(=O)NC(C)C2CC2)c1NC(=O)c1cc(Cn2ccnn2)nn1-c1ncccc1Cl (stereo not shown) [Example 117]"
observed_property = "chromatographic logP"
result_value = 2.41

[[record]]
molecule = "CNC(=O)c1cc(Cl)cc(Cl)c1NC(=O)c1cc(Cn2ncc(C(F)(C(F)(F)F)C(F)(F)F)n2)nn1-c1ncccc1Cl [Example 273]"
observed_property = "chromatographic logP"
result_value = 3.69

[[record]]
molecule = "Cc1cc(Cl)cc(C(=O)NC(C)(C)C)c1NC(=O)c1cc(Cn2cc(C(F)(F)C(F)(F)F)nn2)nn1-c1ncccc1Cl [Example 304]"
observed_property = "chromatographic logP"
result_value = 3.85

